CONDITION LABEL: in diethylene glycol, 310.7 K
ASSAY METRIC: solubility (mole fraction)

>>> reported_result("COc1cc([N+](=O)[O-])c(OC)cc1Cl")
0.000573

* * *

CONDITION LABEL: in 1-methoxy-2-propanol, 314.7 K
ASSAY METRIC: solubility (mole fraction)

>>> reported_result("COc1ccc(OC)c(N)c1")
0.239

* * *

CONDITION LABEL: in 2-ethoxyethanol, 301.6 K
ASSAY METRIC: solubility (mole fraction)

>>> reported_result("COc1ccc(OC)c(N)c1")
0.135

* * *

Quick list: solubility (mole fraction) per entry.
CONDITION LABEL: in 2-methoxyethanol, 299.4 K
ASSAY METRIC: solubility (mole fraction)

>>> reported_result("COc1cc(Cl)c(OC)cc1N")
0.06
>>> reported_result("COc1cc([N+](=O)[O-])c(OC)cc1Cl")
0.0107

* * *

CONDITION LABEL: in 2-methoxyethanol, 280.5 K
ASSAY METRIC: solubility (mole fraction)

>>> reported_result("COc1ccc(OC)c(N)c1")
0.046

* * *

CONDITION LABEL: in 2-ethoxyethanol, 284.9 K
ASSAY METRIC: solubility (mole fraction)

>>> reported_result("COc1cc([N+](=O)[O-])c(OC)cc1Cl")
0.00266

* * *

CONDITION LABEL: in 1-methoxy-2-propanol, 317.2 K
ASSAY METRIC: solubility (mole fraction)

>>> reported_result("COc1cc([N+](=O)[O-])c(OC)cc1Cl")
0.0154

* * *

CONDITION LABEL: in 2-methoxyethanol, 316.6 K
ASSAY METRIC: solubility (mole fraction)

>>> reported_result("COc1ccc(OC)c(N)c1")
0.292

* * *

CONDITION LABEL: in 1-methoxy-2-propanol, 298.5 K
ASSAY METRIC: solubility (mole fraction)

>>> reported_result("COc1cc(Cl)c(OC)cc1N")
0.045

* * *

CONDITION LABEL: in 2-ethoxyethanol, 328 K
ASSAY METRIC: solubility (mole fraction)

>>> reported_result("COc1cc(Cl)c(OC)cc1N")
0.138

* * *

CONDITION LABEL: in 1-methoxy-2-propanol, 292.1 K
ASSAY METRIC: solubility (mole fraction)

>>> reported_result("COc1ccc(OC)c(N)c1")
0.0675

* * *

CONDITION LABEL: in 2-ethoxyethanol, 314 K
ASSAY METRIC: solubility (mole fraction)

>>> reported_result("COc1cc([N+](=O)[O-])c(OC)cc1Cl")
0.0139

* * *

CONDITION LABEL: in 1-methoxy-2-propanol, 307.6 K
ASSAY METRIC: solubility (mole fraction)

>>> reported_result("COc1cc(Cl)c(OC)cc1N")
0.0649

* * *

CONDITION LABEL: in 2-ethoxyethanol, 293.2 K
ASSAY METRIC: solubility (mole fraction)

>>> reported_result("COc1cc([N+](=O)[O-])c(OC)cc1Cl")
0.00347

* * *

CONDITION LABEL: in 1-methoxy-2-propanol, 289.4 K
ASSAY METRIC: solubility (mole fraction)

>>> reported_result("COc1cc(Cl)c(OC)cc1N")
0.0327

* * *

CONDITION LABEL: in 2-methoxyethanol, 285.5 K
ASSAY METRIC: solubility (mole fraction)

>>> reported_result("COc1cc(Cl)c(OC)cc1N")
0.0427

* * *

CONDITION LABEL: in 2-ethoxyethanol, 327.1 K
ASSAY METRIC: solubility (mole fraction)

>>> reported_result("COc1cc([N+](=O)[O-])c(OC)cc1Cl")
0.0237

* * *

CONDITION LABEL: in 2-ethoxyethanol, 287.6 K
ASSAY METRIC: solubility (mole fraction)

>>> reported_result("COc1cc(Cl)c(OC)cc1N")
0.0361

* * *

CONDITION LABEL: in 1-methoxy-2-propanol, 301.6 K
ASSAY METRIC: solubility (mole fraction)

>>> reported_result("COc1ccc(OC)c(N)c1")
0.14

* * *

CONDITION LABEL: in diethylene glycol, 301.6 K
ASSAY METRIC: solubility (mole fraction)

>>> reported_result("COc1cc([N+](=O)[O-])c(OC)cc1Cl")
0.000402

* * *

CONDITION LABEL: in 2-ethoxyethanol, 280.8 K
ASSAY METRIC: solubility (mole fraction)

>>> reported_result("COc1cc([N+](=O)[O-])c(OC)cc1Cl")
0.00226

* * *

CONDITION LABEL: in 2-ethoxyethanol, 286 K
ASSAY METRIC: solubility (mole fraction)

>>> reported_result("COc1ccc(OC)c(N)c1")
0.0369

* * *

CONDITION LABEL: in 2-ethoxyethanol, 315 K
ASSAY METRIC: solubility (mole fraction)

>>> reported_result("COc1cc(Cl)c(OC)cc1N")
0.0894

* * *

CONDITION LABEL: in 1-methoxy-2-propanol, 276.6 K
ASSAY METRIC: solubility (mole fraction)

>>> reported_result("COc1ccc(OC)c(N)c1")
0.0204

* * *

CONDITION LABEL: in 1-methoxy-2-propanol, 313.1 K
ASSAY METRIC: solubility (mole fraction)

>>> reported_result("COc1cc([N+](=O)[O-])c(OC)cc1Cl")
0.0123

* * *

CONDITION LABEL: in 1-methoxy-2-propanol, 291.6 K
ASSAY METRIC: solubility (mole fraction)

>>> reported_result("COc1cc([N+](=O)[O-])c(OC)cc1Cl")
0.00392

* * *

CONDITION LABEL: in diethylene glycol, 316.1 K
ASSAY METRIC: solubility (mole fraction)

>>> reported_result("COc1ccc(OC)c(N)c1")
0.104

* * *

CONDITION LABEL: in 2-ethoxyethanol, 278.6 K
ASSAY METRIC: solubility (mole fraction)

>>> reported_result("COc1cc(Cl)c(OC)cc1N")
0.0282

* * *

CONDITION LABEL: in 2-ethoxyethanol, 323.9 K
ASSAY METRIC: solubility (mole fraction)

>>> reported_result("COc1cc(Cl)c(OC)cc1N")
0.117

* * *

CONDITION LABEL: in diethylene glycol, 305.6 K
ASSAY METRIC: solubility (mole fraction)

>>> reported_result("COc1ccc(OC)c(N)c1")
0.00751

* * *

CONDITION LABEL: in diethylene glycol, 303.8 K
ASSAY METRIC: solubility (mole fraction)

>>> reported_result("COc1cc(Cl)c(OC)cc1N")
0.0346

* * *

CONDITION LABEL: in 1-methoxy-2-propanol, 305.1 K
ASSAY METRIC: solubility (mole fraction)

>>> reported_result("COc1ccc(OC)c(N)c1")
0.174

* * *

CONDITION LABEL: in diethylene glycol, 323.6 K
ASSAY METRIC: solubility (mole fraction)

>>> reported_result("COc1cc([N+](=O)[O-])c(OC)cc1Cl")
0.00109

* * *

CONDITION LABEL: in 1-methoxy-2-propanol, 326.3 K
ASSAY METRIC: solubility (mole fraction)

>>> reported_result("COc1cc(Cl)c(OC)cc1N")
0.125

* * *

CONDITION LABEL: in 2-methoxyethanol, 313 K
ASSAY METRIC: solubility (mole fraction)

>>> reported_result("COc1cc([N+](=O)[O-])c(OC)cc1Cl")
0.0177

* * *

CONDITION LABEL: in 2-methoxyethanol, 301 K
ASSAY METRIC: solubility (mole fraction)

>>> reported_result("COc1ccc(OC)c(N)c1")
0.15

* * *

CONDITION LABEL: in diethylene glycol, 297.3 K
ASSAY METRIC: solubility (mole fraction)

>>> reported_result("COc1ccc(OC)c(N)c1")
0.00165

* * *

CONDITION LABEL: in 2-methoxyethanol, 306.8 K
ASSAY METRIC: solubility (mole fraction)

>>> reported_result("COc1cc([N+](=O)[O-])c(OC)cc1Cl")
0.0146

* * *

CONDITION LABEL: in 2-ethoxyethanol, 289.1 K
ASSAY METRIC: solubility (mole fraction)

>>> reported_result("COc1cc([N+](=O)[O-])c(OC)cc1Cl")
0.00307
>>> reported_result("COc1ccc(OC)c(N)c1")
0.0481

* * *

CONDITION LABEL: in diethylene glycol, 296.1 K
ASSAY METRIC: solubility (mole fraction)

>>> reported_result("COc1cc([N+](=O)[O-])c(OC)cc1Cl")
0.000364

* * *

CONDITION LABEL: in 2-methoxyethanol, 319.6 K
ASSAY METRIC: solubility (mole fraction)

>>> reported_result("COc1cc(Cl)c(OC)cc1N")
0.112

* * *

CONDITION LABEL: in 1-methoxy-2-propanol, 309 K
ASSAY METRIC: solubility (mole fraction)

>>> reported_result("COc1cc([N+](=O)[O-])c(OC)cc1Cl")
0.00937

Data origin: BigSolDB 2.1
